Tested on: Triticum vulgaris (Cy3-TV, also known as wheat germ agglutinin)
Test: Carbohydrate chip incubated with Cy3-TV, fluorescence scanner
Format: binding
Details: carbohydrate on aminooxy or hydrazide chip, FIG. 5(a)
Readout label: binding of TV to immobilized carbohydrate (fluorescence intensity of the spots)

INSERT INTO assay_data (molecule, target_under_test, experimental_value) VALUES
  ('CC(=O)N[C@H]1C(O)O[C@H](CO)[C@@H](O)[C@@H]1O (some centres unmarked)', 'Triticum vulgaris (Cy3-TV, also known as wheat germ agglutinin)', 'less strongly'),
  ('CC(=O)N[C@H]1C(O)O[C@H](CO)[C@H](O)[C@@H]1O (some centres unmarked)', 'Triticum vulgaris (Cy3-TV, also known as wheat germ agglutinin)', 'weakly bound'),
  ('CC(=O)N[C@H]1[C@H]([C@H](O)[C@H](O)CO)O[C@@](O[C@H]2[C@@H](O)[C@@H](CO)O[C@@H](O[C@H]3[C@H](O[C@@H]4O[C@@H](C)[C@@H](O)[C@@H](O)[C@@H]4O)[C@@H](NC(C)=O)C(O)O[C@@H]3CO)[C@@H]2O)(C(=O)O)C[C@@H]1O (some centres unmarked)', 'Triticum vulgaris (Cy3-TV, also known as wheat germ agglutinin)', 'less strongly'),
  ('CC(=O)N[C@H]1[C@H]([C@H](O)[C@H](O)CO)O[C@@](O[C@H]2[C@@H](O)[C@@H](CO)O[C@@H](O[C@H]3[C@H](O)[C@@H](NC(C)=O)C(O)O[C@@H]3CO)[C@@H]2O)(C(=O)O)C[C@@H]1O (some centres unmarked)', 'Triticum vulgaris (Cy3-TV, also known as wheat germ agglutinin)', 'weakly bound');

====

Biological target: Aleuria aurantia (Cy5-AA) lectin (Aleuria aurantia, UniProt P18891)
Sequence (P18891 1-313): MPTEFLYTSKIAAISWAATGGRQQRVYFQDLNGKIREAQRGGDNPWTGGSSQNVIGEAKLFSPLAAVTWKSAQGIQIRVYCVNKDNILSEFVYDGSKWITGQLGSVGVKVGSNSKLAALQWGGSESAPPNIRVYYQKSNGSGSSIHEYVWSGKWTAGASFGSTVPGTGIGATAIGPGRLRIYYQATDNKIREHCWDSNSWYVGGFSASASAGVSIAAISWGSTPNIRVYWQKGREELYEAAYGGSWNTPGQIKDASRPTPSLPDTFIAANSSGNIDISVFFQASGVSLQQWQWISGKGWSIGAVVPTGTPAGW
Experiment: Carbohydrate chip incubated with Cy5-AA, fluorescence scanner
Assay type: binding
Conditions: carbohydrate on aminooxy or hydrazide chip, FIG. 5(b)
Readout label: binding of AA to immobilized carbohydrate (fluorescence intensity of the spots)

INSERT INTO assay_data (compound, experimental_value) VALUES
  ('CC(=O)N[C@H]1[C@H](O[C@H]2[C@@H](O)[C@@H](CO)O[C@@H](O[C@H]3[C@H](O)[C@@H](O)C(O)O[C@@H]3CO)[C@@H]2O)O[C@H](CO)[C@@H](O[C@@H]2O[C@@H](C)[C@@H](O)[C@@H](O)[C@@H]2O)[C@@H]1O[C@@H]1O[C@H](CO)[C@H](O)[C@H](O)[C@H]1O[C@@H]1O[C@@H](C)[C@@H](O)[C@@H](O)[C@@H]1O (stereo partly shown) [compound 20]', 'strongly bound'),
  ('C[C@H](O)[C@@H](O)[C@@H](O)[C@H](O)C=O [compound 8, fucose]', 'strongly bound'),
  ('C[C@@H]1O[C@@H](O[C@H]2[C@H](O[C@@H]3O[C@H](CO)[C@H](O)[C@H](O)[C@H]3O)[C@@H](CO)OC(O)[C@@H]2O)[C@@H](O)[C@H](O)[C@@H]1O (stereo partly shown) [compound 17, Fucα1,3(Galβ1,4)Glc]', 'strongly bound');
